# Assay Details: GHS categories as the set defines them, by LD50: 1 up to 5, 2 up to 50, 3 up to 300, 4 up to 2000, 5 above 2000 mg/kg
# Condition Set: rat; in vivo; po
Would you kindly list GHS category for each of these compounds?

Completed entries (count: 6):
Give its GHS category value. Item: CCN(C(=O)Cl)C1CCCCC1
4

Next entry: CCCCCC(O)CC (stereo not drawn)
5

Next entry: COC(=O)c1ccccc1S(=O)(=O)NC(=O)Nc1nc(OC(F)F)cc(OC(F)F)n1
5

Next entry: CCC(=O)OC1C=CC2C3CCC(C3)C12 (stereo not drawn)
5

Next entry: NS(=O)(=O)c1ccccc1C(F)(F)F
4

Next entry: C[C@H]1[C@H](NC(=O)C(=NOC(C)(C)C(=O)O)c2csc(N)n2)C(=O)N1S(=O)(=O)O
5

Give GHS category for each of the items listed below.
1. CCOCCN(Cc1ccc(Oc2ccc([N+](=O)[O-])cc2)cc1)C(=O)C(Cl)Cl
2. C=CC(C)(CCC=C(C)C)OC=O (stereo not drawn)
3. O=C1c2ccccc2OC1c1ccccc1 (stereo not drawn)
4. Cc1nn(C)c(O)c1C(=O)c1ccc(C(F)(F)F)cc1S(C)(=O)=O
5. COc1cc(OC)nc(NC(=O)NS(=O)(=O)c2c(C(=O)O)cnn2C)n1
6. Cc1cc(Cl)ccc1-n1c(C)nc2cccc(Cl)c2c1=O

1. 5
2. 5
3. 5
4. 5
5. 5
6. 5

Give its GHS category value. Item: CN1COCN=C1N[N+](=O)[O-]
4
